Data credit: patent US20190194280A1

- Target Entity: Serum samples collected at week 16 from patients immunized with UBI AD vaccine (UB-311)
- Assay Info: comp. ELISA, serum P101
Each record here notes measured IC50-based peak height.
Please respond with just the number, no unit label.

Please review the following examples before continuing.
1) DSGYEVHHQK [Aβ7-16 or APP 770 (D678-K687)]
214
2) YEVHHQKLVF [Aβ10-19 or APP 770 (Y681-F690)]
0
3) EFRHDSGYEV [Aβ3-12 or APP 770 (E674-V683)]
0
4) HQKLVFFAED [Aβ14-23 or APP 770 (H685-D694)]
0
5) GYEVHHQKLV [Aβ9-18 or APP 770 (G680-V689)]
0
6) RHDSGYEVHH [Aβ5-14 or APP 770 (R676-H685)]
0
7) SEVKMDAEFR [Aβ-5-5 or APP 770 (S667-R676)]
10
8) EVHHQKLVFF [Aβ11-20 or APP 770 (E682-F691)]
0

What IC50-based peak height value was documented for this binder, VHHQKLVFFA [Aβ12-21 or APP 770 (V683-A692)] ?
0

What IC50-based peak height value was documented for this binder, EISEVKMDAE [Aβ-7-3 or APP 770 (E665-E674)] ?
0

What IC50-based peak height value was documented for this binder, QKLVFFAEDV [Aβ15-24 or APP 770 (Q686-V695)] ?
0

What IC50-based peak height value was documented for this binder, HHQKLVFFAE [Aβ13-22 or APP 770 (H684-E693)] ?
0
